Exercise: for every item that follows, state its recorded IC50.
system: parental wild-type Ba/F3 cells; assay: Ba/F3 (WT) cell proliferation assay (Alamar Blue); format: cell-based; details: Mus musculus, BaF3; 72 hours, Alamar Blue; read-out: BaF3 WT prolif
Numbers only, in nM.

Field: example entries. Status: answers known.
- compound: "Nc1nccnc1-c1ccn2c(-c3cccc(NC(=O)NCC(F)(F)F)c3)cnc2c1 [Example 84]"
  IC50 (nM): 1400
- compound: "CN(C)CC#Cc1ccn2c(-c3cccc(NC(=O)NCC(F)(F)F)c3)cnc2c1 [Example 14]"
  IC50 (nM): 1400

Q. Reported IC50 for Cc1cncc(-c2ccn3c(-c4cccc(NC(=O)NCC(F)(F)F)c4)cnc3c2)n1 [Example 100] : what is it?
A. 970

---

test system: parental wild-type Ba/F3 cells; test: Ba/F3 (WT) cell proliferation assay (Alamar Blue); type: cell-based; conditions: Mus musculus, BaF3, 72 h, read-out: BaF3 WT prolif (μM)
Counter-ions that a name gives are not always drawn.
reportedProperty: IC50
Please don't drop the unit; write it after the number.

- compound: "O=C(NCC(F)(F)F)Nc1cccc(-c2cnc3cc(-c4ccc(CCO)cc4)ccn23)c1 [Example 111, formate]"
  IC50: "0.18 µM"

Below are some compounds; for each one, tell me its IC50.
1. Nc1nc(-c2ccn3c(-c4cccc(NC(=O)NCC(F)(F)F)c4)cnc3c2)ncc1F [Example 102, hydrochloride]
2. O=C(NCC(F)(F)F)Nc1cccc(-c2cnc3cc(-c4cccc(CCO)c4)ccn23)c1 [Example 107, formate]
3. O=C(NCC(F)(F)F)Nc1cccc(-c2cnc3cc(-c4cnc(N5CC(F)(F)C5)nc4)ccn23)c1 [Example 87, trifluoroacetate]

A.
1: 2.3 µM; 2: 0.89 µM; 3: 0.41 µM

Source: patent US8796244B2
